Data provenance is the supplement of paper PMC10567573.

Reported protein stability index values for a set of variants
B1: EHMT1 (parent)
chain: SARQGELQKVLLMLVDGIDPNFKM

# Variants of: B1
# experimentalDetails: protein stability index of a GFP-peptide fusion (GPS, HEK-293T) (PSI 1-6); higher = more stable;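 note: lentivirally expressed fusions sorted by FACS into six bins by GFP to DsRed ratio, PSI derived from sequencing read proportions per bin multiplied by bin number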
# measurementSetup: c terminus: a fixed tail appended

>  <var>
V15G

>  <protein stability index>
2

$$$$
>  <var>
L7V

>  <protein stability index>
1.03

$$$$
>  <var>
P20F

>  <protein stability index>
2.59

$$$$
>  <var>
L7K

>  <protein stability index>
1.67

$$$$
>  <var>
M13G

>  <protein stability index>
2.37

$$$$
>  <var>
L11I

>  <protein stability index>
2.1

$$$$
>  <var>
F22D

>  <protein stability index>
2.01

$$$$
>  <var>
F22P

>  <protein stability index>
1.76

$$$$
>  <var>
L7Y

>  <protein stability index>
1.5

$$$$
>  <var>
V10P

>  <protein stability index>
2.43

$$$$
>  <var>
V15S

>  <protein stability index>
1.83

$$$$
>  <var>
G17H

>  <protein stability index>
1.87

$$$$
>  <var>
V10W

>  <protein stability index>
1.77

$$$$
>  <var>
F22I

>  <protein stability index>
2.09

$$$$
>  <var>
L12Q

>  <protein stability index>
2.02

$$$$
>  <var>
F22N

>  <protein stability index>
1.56

$$$$
>  <var>
V15I

>  <protein stability index>
1.72

$$$$
>  <var>
D16Q

>  <protein stability index>
2.49

$$$$
>  <var>
A2L

>  <protein stability index>
3.91

$$$$
>  <var>
G5S

>  <protein stability index>
1.64

$$$$
>  <var>
L7G

>  <protein stability index>
1.59

$$$$
>  <var>
L7P

>  <protein stability index>
1.84

$$$$
>  <var>
L12E

>  <protein stability index>
3.04

$$$$
>  <var>
N21T

>  <protein stability index>
1.98

$$$$
>  <var>
G5C

>  <protein stability index>
1.79

$$$$
>  <var>
G5W

>  <protein stability index>
2.55

$$$$
>  <var>
S1D

>  <protein stability index>
1.18

$$$$
